biological target: T1, recombinant human IGF-II (Insulin-like Growth Factor II) (human, UniProt P01344 25-91, biotinylated (Biotinyl-IGF-II, GroPep) where immobilised in SPR, site not stated; not biotinylated in ITC and as SPR analyte); assay: SPR, IGF-II immobilised, kinetic fit
T1 construct: also called IGF2; IGF-2
T1 sequence (P01344 25-91 limits assumed): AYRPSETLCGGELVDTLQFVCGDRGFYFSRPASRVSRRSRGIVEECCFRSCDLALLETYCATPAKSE
pKd: −log10 of the molar value.
Quick reference for pKd among some binders
QUANTITY_NAME: pKd

1. wild type IGF2R domain 11 (amino acids 1511-1650) with C-terminal His6 tag, from Pichia pastoris (receptor, also called WT; wild type domain 11) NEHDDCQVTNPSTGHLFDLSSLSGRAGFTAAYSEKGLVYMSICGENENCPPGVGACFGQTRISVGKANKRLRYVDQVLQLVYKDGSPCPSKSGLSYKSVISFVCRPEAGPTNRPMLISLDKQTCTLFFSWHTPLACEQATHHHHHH :: 6.99
2. IGF2R domain 11 E1544V (amino acids 1511-1650, C-terminal His6 tag, from Pichia pastoris) (receptor) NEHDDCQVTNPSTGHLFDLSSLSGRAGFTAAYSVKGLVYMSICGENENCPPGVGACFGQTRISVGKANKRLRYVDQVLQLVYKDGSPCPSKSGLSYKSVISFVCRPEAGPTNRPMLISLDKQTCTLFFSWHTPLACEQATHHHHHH :: 7.30
3. IGF2R domain 11 E1544A (amino acids 1511-1650, C-terminal His6 tag, from Pichia pastoris) (receptor) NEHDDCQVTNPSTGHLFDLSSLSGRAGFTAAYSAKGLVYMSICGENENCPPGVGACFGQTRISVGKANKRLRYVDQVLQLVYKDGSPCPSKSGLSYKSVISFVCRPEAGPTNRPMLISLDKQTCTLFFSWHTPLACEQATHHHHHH :: 7.44
4. IGF2R domain 11 E1544K (amino acids 1511-1650, C-terminal His6 tag, from Pichia pastoris) (receptor, also called enhanced mutant) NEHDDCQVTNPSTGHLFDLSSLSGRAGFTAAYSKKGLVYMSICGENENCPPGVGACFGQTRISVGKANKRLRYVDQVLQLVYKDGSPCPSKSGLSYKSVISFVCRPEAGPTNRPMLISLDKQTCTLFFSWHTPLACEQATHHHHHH :: 7.82
